- Tested on: FGFR
- Test: FGF-induced DNA synthesis (BrdU incorporation) in 3T3/EGFRc7 cells
- Type: cell-based
- Measurement parameters: FGF induced DNA synthesis, with added uridine (30 μM), read-out: IC50 + uridine
Overview of recorded pIC50 for various compounds
In textbook form, pIC50 equals minus log to base ten of the concentration in mol/L.

{"columns": ["Compound", "pIC50"],
 "data": [
  ["Cc1oncc1C(=O)Nc1ccc(C(F)(F)F)cc1 [leflunomide]", 4.10]
]}

# input Record Cc1nocc1C(=O)Nc1ccc(C(F)(F)F)cc1 [cmpd. 1] : what is its pIC50 with FGFR?
# output 4.15

* * *

- Test system: FGFR
- Test: FGF-induced DNA synthesis (BrdU incorporation) in 3T3/EGFRc7 cells
- Assay type: cell-based
- Measurement parameters: FGF induced DNA synthesis, without added uridine, read-out: IC50 − uridine
pIC50: −log10 of the molar value.
Outcome measure: pIC50

(P) Cc1c(-c2ccc(-c3ccccc3F)cc2)nc2ccc(F)cc2c1C(=O)O
(Q) Cc1oncc1C(=O)Nc1ccc(C(F)(F)F)cc1 [leflunomide]
# input Consider P and Q . Which of these has its pIC50 at a higher number? Mark your answer with the label of the selected entry.
# output P
(P: 5.80, Q: 4.70)
